- tested target: T1, HLA-A2 molecules on the surface of human T2 cells (human)
- T1 construct: MHC class I molecule that the peptides load onto; also called HLA-A2.1; HLA-A*0201
- assay overview: T2 peptide-binding assay; HLA-A2 up-regulation on T2 cells, 50 ug/mL peptide plus b2m, flow cytometry with PE anti-HLA-A2 mAb
reported property: binding result

SLFVLGLFL (Native peptide of CS1, synthetic) [CS1-P2: CS1 239-247 (SLFVLGLFL)] | binds
LLVPLLLSL (Native peptide of CS1, synthetic) [CS1-P3: CS1 232-240 (LLVPLLLSL)] | binds
TLIYILWQL (Native peptide of CS1, synthetic) [CS1-P4: CS1 9-17 (TLIYILWQL)] | binds
LLLSLFVLGL [CS1-P1: CS1 236-245 (LLLSLFVLGL)] | binds
